Entries and their Kd
# SYSTEM_NAME: ADP sensor (mTFP1-ParM-mVenus cp157 terminal fusion; ADPrime sensor, soluble form) (Escherichia coli, UniProt P11904, C287A/K33A/T174A/T175N)
# Construct: ParM flanked by FRET reporters: wild-type mTFP1 via SGITS linker at N-terminus, mVenus-cp157 via AAA linker at C-terminus
# Sequence (P11904 1-320 K33A/T174A/T175N/C287A): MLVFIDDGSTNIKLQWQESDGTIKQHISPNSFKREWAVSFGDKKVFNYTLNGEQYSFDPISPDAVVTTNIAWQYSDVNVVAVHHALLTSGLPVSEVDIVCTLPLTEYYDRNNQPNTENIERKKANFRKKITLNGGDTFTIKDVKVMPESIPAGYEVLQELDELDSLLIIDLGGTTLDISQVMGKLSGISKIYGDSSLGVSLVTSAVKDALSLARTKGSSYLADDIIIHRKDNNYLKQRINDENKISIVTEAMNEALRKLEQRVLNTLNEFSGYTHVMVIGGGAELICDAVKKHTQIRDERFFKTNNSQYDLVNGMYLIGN
# ASSAY_PROCEDURE: FRET ratio (mTFP1/mVenus) dose response, Hill fit
# MEASUREMENT_CONTEXT: read-out: apparent Kd
Reply numerically in µM, unit not repeated.

INSERT INTO results (structure_notation, result_type, experimental_value) VALUES
  ('Nc1ncnc2c1ncn2[C@@H]1O[C@H](COP(=O)(O)OP(=O)(O)OP(=O)(O)O)[C@@H](O)[C@H]1O', 'Kd', 9.9);

Now look at this entry.
Prompt: Name the recorded Kd for `Nc1ncnc2c1ncn2[C@@H]1O[C@H](COP(=O)(O)OP(=O)(O)O)[C@@H](O)[C@H]1O` .
Response: 0.16
